Biological target: UniProt P34976
Sequence (P34976 whole entry): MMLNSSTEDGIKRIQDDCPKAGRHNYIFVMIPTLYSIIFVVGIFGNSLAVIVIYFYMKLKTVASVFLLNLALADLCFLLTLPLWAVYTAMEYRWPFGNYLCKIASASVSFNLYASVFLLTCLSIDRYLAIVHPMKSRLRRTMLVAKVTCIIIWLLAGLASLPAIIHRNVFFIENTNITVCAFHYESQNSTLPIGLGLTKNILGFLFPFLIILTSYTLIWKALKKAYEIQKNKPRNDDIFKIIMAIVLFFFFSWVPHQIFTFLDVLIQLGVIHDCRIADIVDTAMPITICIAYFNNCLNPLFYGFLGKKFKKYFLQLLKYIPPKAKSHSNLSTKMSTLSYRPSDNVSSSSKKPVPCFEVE
Assign labels as follows, please: condition met for IC50 below 0.9 nM; condition not met for IC50 equal to or exceeding 0.9 nM.

[
  {
    "compound": "CCCCc1nn(-c2ccccc2C(F)(F)F)c(=O)n1Cc1ccc(-c2ccccc2S(=O)(=O)NC(=O)C2CC2C)cc1 (configuration not stated)",
    "className": "condition met"
  },
  {
    "compound": "CCCCc1nn(-c2ccccc2C(F)(F)F)c(=O)n1Cc1ccc(-c2ccccc2S(=O)(=O)NC(=O)c2ccoc2)cc1",
    "className": "condition not met"
  },
  {
    "compound": "CCCCc1nn(-c2c(Cl)cccc2Cl)c(=O)n1Cc1ccc(-c2ccccc2S(=O)(=O)NC(=O)c2ccccc2)cc1",
    "className": "condition not met"
  },
  {
    "compound": "CCCCc1nn(-c2ccccc2C(F)(F)F)c(=O)n1Cc1ccc(-c2ccccc2S(=O)(=O)NC(=O)C2CC2)cc1",
    "className": "condition not met"
  },
  {
    "compound": "O=C(NS(=O)(=O)c1ccccc1-c1ccc(Cn2c(CCCC(F)(F)F)nn(-c3ccccc3C(F)(F)F)c2=O)cc1)c1ccccc1",
    "className": "condition not met"
  },
  {
    "compound": "CCCCc1nn(-c2ccccc2C(F)(F)F)c(=O)n1Cc1ccc(-c2ccccc2S(=O)(=O)NS(=O)(=O)c2ccccc2)cc1",
    "className": "condition met"
  },
  {
    "compound": "CCCCc1nn(-c2ccccc2C(F)(F)F)c(=O)n1Cc1ccc(-c2ccccc2S(=O)(=O)NC(=O)c2cccs2)cc1",
    "className": "condition not met"
  }
]

###

Listed compounds paired with reported IC50
Target: Type-2 angiotensin II receptor (Rattus norvegicus, UniProt P35351)
Sequence (P35351 whole entry): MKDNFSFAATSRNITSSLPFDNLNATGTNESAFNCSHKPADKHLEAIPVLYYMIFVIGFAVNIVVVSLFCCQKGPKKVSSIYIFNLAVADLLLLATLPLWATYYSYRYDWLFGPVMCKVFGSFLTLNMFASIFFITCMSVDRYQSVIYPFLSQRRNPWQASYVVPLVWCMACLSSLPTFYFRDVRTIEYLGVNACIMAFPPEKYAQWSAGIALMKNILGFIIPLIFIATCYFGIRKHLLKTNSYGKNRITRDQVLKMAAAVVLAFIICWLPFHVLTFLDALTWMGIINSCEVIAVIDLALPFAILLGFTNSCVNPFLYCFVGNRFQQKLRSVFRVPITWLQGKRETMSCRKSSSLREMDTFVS

[
  {
    "smilesText": "CCCCc1nn(-c2ccccc2C(F)(F)F)c(=O)n1Cc1ccc(-c2ccccc2S(=O)(=O)NC(=O)C2(C)SCCS2)cc1",
    "experimentalTarget": "Type-2 angiotensin II receptor (Rattus norvegicus, UniProt P35351)",
    "IC50 (nM)": 80
  },
  {
    "smilesText": "CCCCc1nn(-c2ccccc2C(F)(F)F)c(=O)n1Cc1ccc(-c2ccccc2S(=O)(=O)NC(=O)c2ccc(Cl)cc2)cc1",
    "experimentalTarget": "Type-2 angiotensin II receptor (Rattus norvegicus, UniProt P35351)",
    "IC50 (nM)": 520
  },
  {
    "smilesText": "CCCCc1nn(-c2ccccc2C(F)(F)F)c(=O)n1Cc1ccc(-c2ccccc2S(=O)(=O)NC(=O)c2ccsc2)cc1",
    "experimentalTarget": "Type-2 angiotensin II receptor (Rattus norvegicus, UniProt P35351)",
    "IC50 (nM)": 300
  },
  {
    "smilesText": "CCCCc1nn(-c2ccccc2C(F)(F)F)c(=O)n1Cc1ccc(-c2ccccc2S(=O)(=O)NC(=O)c2c(C)cccc2C)cc1",
    "experimentalTarget": "Type-2 angiotensin II receptor (Rattus norvegicus, UniProt P35351)",
    "IC50 (nM)": 190
  },
  {
    "smilesText": "CCCCc1nn(-c2ccccc2C(F)(F)F)c(=O)n1Cc1ccc(-c2ccccc2S(=O)(=O)NC(=O)c2ccc(Cl)s2)cc1",
    "experimentalTarget": "Type-2 angiotensin II receptor (Rattus norvegicus, UniProt P35351)",
    "IC50 (nM)": 260
  },
  {
    "smilesText": "CCCCc1nn(-c2ccccc2C(F)(F)F)c(=O)n1Cc1ccc(-c2ccccc2S(=O)(=O)Nc2ccc([N+](=O)[O-])cc2)cc1",
    "experimentalTarget": "Type-2 angiotensin II receptor (Rattus norvegicus, UniProt P35351)",
    "IC50 (nM)": 5200
  },
  {
    "smilesText": "CCCCc1nn(-c2ccccc2C(F)(F)F)c(=O)n1Cc1ccc(-c2ccccc2S(=O)(=O)NC(=O)c2cc(C)oc2C(F)(F)F)cc1",
    "experimentalTarget": "Type-2 angiotensin II receptor (Rattus norvegicus, UniProt P35351)",
    "IC50 (nM)": 60
  },
  {
    "smilesText": "CCCCc1nn(-c2ccccc2C(F)(F)F)c(=O)n1Cc1ccc(-c2ccccc2S(=O)(=O)NC(=O)c2ccco2)cc1",
    "experimentalTarget": "Type-2 angiotensin II receptor (Rattus norvegicus, UniProt P35351)",
    "IC50 (nM)": 120
  },
  {
    "smilesText": "CCCCc1nn(-c2ccccc2C(F)(F)F)c(=O)n1Cc1ccc(-c2ccccc2S(=O)(=O)NC(=O)NC(C)(C)C)cc1",
    "experimentalTarget": "Type-2 angiotensin II receptor (Rattus norvegicus, UniProt P35351)",
    "IC50 (nM)": 130
  },
  {
    "smilesText": "CCCCc1nn(-c2ccccc2C(F)(F)F)c(=O)n1Cc1ccc(-c2ccccc2S(=O)(=O)NC(=O)c2ccc(Br)o2)cc1",
    "experimentalTarget": "Type-2 angiotensin II receptor (Rattus norvegicus, UniProt P35351)",
    "IC50 (nM)": 170
  },
  {
    "smilesText": "CCCCc1nn(-c2ccccc2C(F)(F)F)c(=O)n1Cc1ccc(-c2ccccc2S(=O)(=O)NC(=O)OCC(C)C)cc1",
    "experimentalTarget": "Type-2 angiotensin II receptor (Rattus norvegicus, UniProt P35351)",
    "IC50 (nM)": 170
  },
  {
    "smilesText": "CCCCc1nn(-c2ccccc2C(F)(F)F)c(=O)n1Cc1ccc(-c2ccccc2S(=O)(=O)NC(=O)c2cccn2C)cc1",
    "experimentalTarget": "Type-2 angiotensin II receptor (Rattus norvegicus, UniProt P35351)",
    "IC50 (nM)": 500
  },
  {
    "smilesText": "CCCCc1nn(-c2ccccc2C(F)(F)F)c(=O)n1Cc1ccc(-c2ccccc2S(=O)(=O)NC(=O)c2ccccc2)cc1.ClCCl",
    "experimentalTarget": "Type-2 angiotensin II receptor (Rattus norvegicus, UniProt P35351)",
    "IC50 (nM)": 300
  },
  {
    "smilesText": "CCCc1nn(-c2ccccc2C(F)(F)F)c(=O)n1Cc1ccc(-c2ccccc2S(=O)(=O)NC(=O)C2CC2)cc1",
    "experimentalTarget": "Type-2 angiotensin II receptor (Rattus norvegicus, UniProt P35351)",
    "IC50 (nM)": 410
  },
  {
    "smilesText": "CCCCc1nn(-c2ccccc2C(F)(F)F)c(=O)n1Cc1ccc(-c2ccccc2S(=O)(=O)NC(=O)Cc2ccccc2)cc1",
    "experimentalTarget": "Type-2 angiotensin II receptor (Rattus norvegicus, UniProt P35351)",
    "IC50 (nM)": 240
  }
]

###

Examples of compounds with documented pIC50 follow.
molecular target: Type-2 angiotensin II receptor (Rattus norvegicus, UniProt P35351); assay: In vitro inhibitory activity against angiotensin II rat midbrain AT2 receptor using radioligand [125I]-Sar Ile-AII
pIC50: −log10 of the molar value.

[
  {
    "smilesText": "CCCCc1nn(-c2ccccc2C(F)(F)F)c(=O)n1Cc1ccc(-c2ccccc2S(=O)(=O)NC(=O)CCOC)cc1",
    "experimentalTarget": "Type-2 angiotensin II receptor (Rattus norvegicus, UniProt P35351)",
    "pIC50": 6.57
  },
  {
    "smilesText": "CCCCc1nn(C(C)C)c(=O)n1Cc1ccc(-c2ccccc2S(=O)(=O)NC(=O)c2ccccc2)cc1",
    "experimentalTarget": "Type-2 angiotensin II receptor (Rattus norvegicus, UniProt P35351)",
    "pIC50": 5.34
  },
  {
    "smilesText": "CCCCc1nn(-c2ccccc2C(F)(F)F)c(=O)n1Cc1ccc(-c2ccccc2S(=O)(=O)NC(=O)c2ccccc2Br)cc1",
    "experimentalTarget": "Type-2 angiotensin II receptor (Rattus norvegicus, UniProt P35351)",
    "pIC50": 7.35
  },
  {
    "smilesText": "CCCCc1nn(-c2ccccc2C(F)(F)F)c(=O)n1Cc1ccc(-c2ccccc2S(=O)(=O)NC(=O)C2SCCS2)cc1",
    "experimentalTarget": "Type-2 angiotensin II receptor (Rattus norvegicus, UniProt P35351)",
    "pIC50": 7.46
  },
  {
    "smilesText": "CCCCc1nn(-c2ccccc2C(F)(F)F)c(=O)n1Cc1ccc(-c2ccccc2S(=O)(=O)NC(=O)C2CCCC2)cc1",
    "experimentalTarget": "Type-2 angiotensin II receptor (Rattus norvegicus, UniProt P35351)",
    "pIC50": 7.09
  }
]

From: ChEMBL document CHEMBL1127442
